Cited source for all entries: patent US20190300590A1

# TARGET_UNDER_TEST: Rat IL-23R_huFC (rat)
# METHOD: rat ELISA vs IL-23
*1 amine or outer side, *2 acyl side, *3 side chain or, on linkers, in order; H or OH if unused. Bridges are numbered along the chain shown (N, C = ends). [ ]: non-standard residue; d: D form. Phe(4-OMe) = 4-methoxy-L-phenylalanine (O-methyl-L-tyrosine), COc1ccc(C[C@H](N[*:1])C(=O)[*:2])cc1; Phe(4-Br) = N[C@@H](Cc1ccc(Br)cc1)C(=O)O; 2Nal = N[C@@H](Cc1ccc2ccccc2c1)C(=O)O; αMeK = C[C@](N)(CCCCN)C(=O)O; Abu = CC[C@H](N)C(=O)O
PROPERTY: IC50

# annotated cases, reported IC50 shown
1. Ac-[Abu]QTWQC[Phe(4-OMe)]W[αMeK]ENG-NH2 (thioether 1-6) [Ac-Cyclo-[[Abu]-QTWQC]-[Phe(4-OMe)]-W-[α-MeLys]-ENG-NH2] | 25 to 100 nM
2. Ac-[Abu]QTWQC[Phe(4-OMe)][2Nal][αMeK]ENG-NH2 (thioether 1-6) [Ac-Cyclo-[[Abu]-QTWQC]-[Phe(4-OMe)]-[2-Nal]-[α-MeLys]-ENG-NH2] | 25 to 100 nM

Now for the binder whose IC50 we want.
Which IC50 is listed for Ac-[Abu]QTWQC[Phe(4-Br)]W[αMeK]ENG-NH2 (thioether 1-6) [Ac-Cyclo-[[Abu]-QTWQC]-[Phe(4-Br)] W-[α-MeLys]-ENG-NH2] ?
25 to 100 nM
